Hello, the source for this data is PubChem BioAssay (NCI), in case you need it.

test system: SF-295 CNS; assay: NCI tumour cell line growth inhibition, 48 h
Exercise: for every item that follows, state its recorded TGI.
Answers are plain numbers, in µM.

The examples below pair each entry with its known result.
COc1cc(NC(=O)c2ccc(C(F)(F)F)nc2Nc2ccc(Cl)cc2C)cc(OC)c1OC
23.1
N=C1S/C(=C/c2ccc(-c3ccc4c(c3)C(=O)NC4=O)o2)C(=O)N1c1ccc(Br)cc1
8.95

// below: TGI requested for another compound
# input compound: COc1cc2c(cc1OC)C(Cc1ccc(Oc3cc(CC4c5cc(OC)c(OC)cc5CCN4C)ccc3O)cc1)N(C)CC2 (stereo not given) ; wanted: its TGI 47.1
